# test_target: T1, human CD24 (human, UniProt P25063 27-59, heavily glycosylated, GPI-anchored (as described in the background))
# T1 chain: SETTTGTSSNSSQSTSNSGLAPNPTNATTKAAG
# protocol_details: FACS binding; Nalm6 cells
Parameter pEC50: see the listing below.
Give only the number. pEC50 is defined as minus log10 of concentration in molar units.

Example binders with recorded pEC50:
{"columns": ["binder", "pEC50"],
 "data": [
  ["73H5-1G2 (antibody, V domains shown) VH: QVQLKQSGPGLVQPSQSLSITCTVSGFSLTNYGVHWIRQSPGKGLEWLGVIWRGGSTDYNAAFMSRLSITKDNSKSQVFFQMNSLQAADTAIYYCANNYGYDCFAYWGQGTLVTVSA VL: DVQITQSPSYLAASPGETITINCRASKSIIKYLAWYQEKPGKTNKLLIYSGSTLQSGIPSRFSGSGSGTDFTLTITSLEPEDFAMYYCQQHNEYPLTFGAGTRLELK", 6.97],
  ["81A1F8 (antibody, V domains shown) VH: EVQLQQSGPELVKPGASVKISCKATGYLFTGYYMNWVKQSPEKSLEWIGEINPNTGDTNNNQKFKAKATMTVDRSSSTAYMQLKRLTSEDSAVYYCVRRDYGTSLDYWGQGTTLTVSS VL: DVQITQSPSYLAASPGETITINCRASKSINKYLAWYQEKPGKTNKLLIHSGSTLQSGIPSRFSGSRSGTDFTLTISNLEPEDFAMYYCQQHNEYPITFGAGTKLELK", 7.94],
  ["56A7E3 (antibody, V domains shown) VH: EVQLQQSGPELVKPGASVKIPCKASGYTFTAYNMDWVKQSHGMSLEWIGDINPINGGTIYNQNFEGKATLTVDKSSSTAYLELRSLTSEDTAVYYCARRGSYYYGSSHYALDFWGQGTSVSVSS VL: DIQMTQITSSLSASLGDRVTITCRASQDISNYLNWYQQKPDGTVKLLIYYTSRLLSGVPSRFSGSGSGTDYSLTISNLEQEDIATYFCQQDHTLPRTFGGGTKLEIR", 7.53],
  ["58F10-1F6 (antibody, V domains shown) VH: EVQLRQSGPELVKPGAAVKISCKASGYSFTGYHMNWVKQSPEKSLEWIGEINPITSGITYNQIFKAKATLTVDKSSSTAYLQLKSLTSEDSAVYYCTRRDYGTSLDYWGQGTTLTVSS VL: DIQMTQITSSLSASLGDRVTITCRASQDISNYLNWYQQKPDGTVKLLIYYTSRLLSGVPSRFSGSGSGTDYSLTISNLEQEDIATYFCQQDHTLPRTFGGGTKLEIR", 7.15]
]}

Identify the reported pEC50 for the following entry. 110D4G4 (antibody, V domains shown) VH: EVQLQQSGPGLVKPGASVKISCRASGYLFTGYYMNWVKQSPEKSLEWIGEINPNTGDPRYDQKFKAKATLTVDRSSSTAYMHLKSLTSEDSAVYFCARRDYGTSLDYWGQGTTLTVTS VL: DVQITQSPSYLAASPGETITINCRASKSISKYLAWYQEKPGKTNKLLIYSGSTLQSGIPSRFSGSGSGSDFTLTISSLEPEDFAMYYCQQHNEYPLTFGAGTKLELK
7.61
